TARGET_ENTITY: AgTG3 (Anopheles gambiae, UniProt D2K8K8)
Sequence (D2K8K8 entry or part of it): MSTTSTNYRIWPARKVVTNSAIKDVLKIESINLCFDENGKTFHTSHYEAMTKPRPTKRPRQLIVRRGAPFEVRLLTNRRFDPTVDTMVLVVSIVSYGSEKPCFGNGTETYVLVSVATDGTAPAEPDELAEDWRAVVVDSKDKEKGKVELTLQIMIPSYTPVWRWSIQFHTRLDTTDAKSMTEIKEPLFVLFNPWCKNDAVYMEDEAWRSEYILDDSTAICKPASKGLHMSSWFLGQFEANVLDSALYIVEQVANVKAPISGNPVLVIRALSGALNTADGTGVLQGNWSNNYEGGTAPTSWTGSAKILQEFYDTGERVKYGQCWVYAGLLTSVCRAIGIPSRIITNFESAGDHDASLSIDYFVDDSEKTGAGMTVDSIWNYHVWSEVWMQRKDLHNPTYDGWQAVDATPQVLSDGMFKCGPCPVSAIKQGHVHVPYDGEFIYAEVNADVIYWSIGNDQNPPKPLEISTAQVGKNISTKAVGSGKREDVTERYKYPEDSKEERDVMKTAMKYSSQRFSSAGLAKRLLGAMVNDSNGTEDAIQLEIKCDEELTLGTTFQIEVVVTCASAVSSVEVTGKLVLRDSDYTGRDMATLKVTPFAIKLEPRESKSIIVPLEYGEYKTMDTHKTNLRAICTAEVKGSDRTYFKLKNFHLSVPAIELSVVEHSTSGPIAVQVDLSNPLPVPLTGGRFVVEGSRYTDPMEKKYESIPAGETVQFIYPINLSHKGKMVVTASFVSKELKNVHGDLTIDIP
ASSAY_NOTES: biochemical
CONDITION_DESCRIPTION: dose–response curves in the range of 0.5–100 μM, FITC-CAD plate assay; read-out: IC50 for inhibition of AgTG3
RESULT_TYPE: pIC50
Kindly note that pIC50 refers to -log10 of the concentration in mol/L and answer with the value alone.

The value of pIC50 recorded for O=C(N[C@@H](Cc1c[nH]c2ccc(F)cc12)C(=O)NC[C@@H]1CC(Br)=NO1)OCc1ccnc2ccccc12 when tested on AgTG3 (Anopheles gambiae, UniProt D2K8K8) reads 4.91

The value of pIC50 recorded for O=C(N[C@@H](Cc1c[nH]c2ccc(F)cc12)C(=O)NC[C@@H]1CC(Br)=NO1)OCc1cnc2ccccc2n1 when tested on AgTG3 (Anopheles gambiae, UniProt D2K8K8) reads 5.01

The value of pIC50 recorded for O=C(N[C@@H](Cc1c[nH]c2ccc(F)cc12)C(=O)NC[C@@H]1CC(Br)=NO1)OCc1cnc2ccccc2c1 when tested on AgTG3 (Anopheles gambiae, UniProt D2K8K8) reads 5.51

The value of pIC50 recorded for O=C(N[C@@H](Cc1c[nH]c2ccc(O)cc12)C(=O)NC[C@@H]1CC(Br)=NO1)OCc1cnc2ccccc2c1 when tested on AgTG3 (Anopheles gambiae, UniProt D2K8K8) reads 5.37

The value of pIC50 recorded for O=C(N[C@@H](Cc1ccccc1)C(=O)NC[C@@H]1CC(Br)=NO1)OCc1cnc2ccccc2c1 [Compound 5] when tested on AgTG3 (Anopheles gambiae, UniProt D2K8K8) reads 4.54

The value of pIC50 recorded for O=C(N[C@@H](Cc1c[nH]c2ccccc12)C(=O)NC[C@@H]1CC(Br)=NO1)OCc1cnc2ccccc2c1 when tested on AgTG3 (Anopheles gambiae, UniProt D2K8K8) reads 5.21

The value of pIC50 recorded for CC(C)(C)OC(=O)N[C@@H](Cc1c[nH]c2ccc(F)cc12)C(=O)NC[C@@H]1CC(Br)=NO1 when tested on AgTG3 (Anopheles gambiae, UniProt D2K8K8) reads 4.25
